The reported measurements were obtained from the supplement of paper PMC7125110.

Record form. Attribute: KM. Fill in for each entry.
B1: glmS ribozyme (parent)
chain: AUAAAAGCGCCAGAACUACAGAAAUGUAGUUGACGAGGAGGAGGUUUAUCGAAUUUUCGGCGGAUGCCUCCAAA

Variants of: B1
Test: KM; higher = weaker cofactor use; RNA array
Settings: with glucosamine-6-phosphate
One number for each entry, in µM.

The following variants have reported results that may help.
# Variant, KM (µM)
data = [
    ("A12U U45A A53U", 1100),
    ("C58A C71U", 3890),
    ("G29A C67U", 742),
    ("G13C A53G", 3550),
    ("U30A A53C", 3590),
]

State the recorded KM for every item in the following list.
1. C50U A53U
2. G7A C70U
3. A39G U56C

Out:
[5390, 5580, 3240]

State the recorded KM for every item in the following list.
1. G40C U45A
2. U57C
3. U56A C67G
4. U57C A64G
5. G41C U46G
6. G40C C71G
7. A15G G29C U31C A39U
8. U30C A64G

Out:
1. 823
2. 3180
3. 1310
4. 3140
5. 2060
6. 1170
7. 4650
8. 1100

State the recorded KM for every item in the following list.
1. G38A U55C
2. U56C C67A
3. A42G U46C
4. G13A U47A

Out:
1: 37.7; 2: 701; 3: 1020; 4: 3210

State the recorded KM for every item in the following list.
1. A12G A15G C70A
2. C50U U55A
3. U47A U65G
4. C11U A53G
5. A53G U57G

Out:
[2120, 2350, 3540, 1400, 1880]
